System: BT-549 breast
Assay: NCI-60 one-dose screen, 48 h
Conditions: 10 µM unless noted
Method: Growth inhibition of the BT-549 human tumor cell line is measured as a screen for anti-cancer activity. Cells are grown in 96 well plates and exposed to the test compound for 48 hours. Compounds are tested at a single concentration, which is 10^-5 M for most compounds. The reported endpoint is percent growth (GI% or GIPRCNT), where numbers from 0 - 100% represent growth inhibition, and numbers from -100% - 0 represent cell death. For example, a value of 40 represents 60% growth inhibition. […]
About 83,000 compounds went through this panel and 20% of them were active in at least one assay; those are over-represented in the sample as a whole. Calls of active or inactive are those of the source. The calls were made as follows: active = growth percent below 10; inactive = the rest.
Outcome codes: t (active), f (inactive)

MOLECULE	GROUP LABEL
C/C(=C\CCc1ccsc1)CC/C=C(\C)CCCN1CCC(CO)CC1	f
COc1ccc(OC)c(NC(=O)c2cc3oc4ccccc4c3cc2O)c1	f
Cc1cc(NC(=O)Nc2cccc3ccccc23)no1	f
CC(C)[C@]12O[C@H]1[C@@H]1O[C@]13[C@]1(O[C@H]1C[C@H]1C4=C(CC[C@@]13C)C(=O)OC4)[C@@H]2OC(=O)CN(C)C	t
O=NC1CC=CCC1c1ccccc1 (stereo unspecified)	f
Nc1c2ccccc2nc2ccccc12 (tested in a mixture with another compound)	f
CCCCC(C#N)C(N)=O (stereo unspecified)	f
COc1cccc(C2C(C#N)=C(N)Oc3cc(OC)ccc32)c1 (stereo unspecified)	f
CCCc1nn(C)c2c(=O)[nH]c(-c3cc(S(=O)(=O)N4CCN(C)CC4)ccc3OCC)nc12	f
COc1cc2c(-c3nc4cc(Cl)c(F)cc4s3)cc(=O)oc2c(C)c1OC	t
Cc1ccc([N+](=O)[O-])cc1NC(=O)Nc1cccc(F)c1	f
